Data origin, for the record: patent US20250027068

For each of the proteins below, state its Enzyme Activity Endpoint Assay (purified): IgG.
biological target: pooled human IgG
Give bare numbers, in ng/µL.

Would you please look over these solved cases?
[[record]]
protein = "PRT-122 (protein) MRNATEAYAKEVPKKITSVWTKGVTPLTPEQFIYQNEDVFHAPYLAHQGWYDITKTFNGKDNLLCGAATAGNMLHWWFDQNKEEIERYLSKHPEKQKIIFNNQELFDLKAAIDTKDSQTNSALFNYFRDKAFPNLSARQLGVMPDLVLDMFINGYYLNVTKTQSTDVNRPYQTKDKRGGIFDAVFTRGDQTKLLTERHDLKNKTLEEISQLIKQELTEGKALGLSHTYANVRISHVINLWGADFDAEGNLEAIYVTDSDSNASIGMKKYFVGVNASGKVAISAKKIEDDNIGAQVLGLFTLSSGKDIWEKLS"
measurement_units = "ng/µL"
observed_result = 138

[[record]]
protein = "PRT-608 (protein) MQITSVWTKGVTPLTPEQFRYNNEDVIHAPYLAHQGWYDITKAFDGKDNLLCGAATAGNMLHWWFDQNKTEIEAYLSKHPEKQKIIFNNQELFDLKAAIDTKDSQTNSQLFNYFRDKAFPNLSARQLGVMPDLVLDMFINGYYLNVFKTQSTDVNRPYQDKDKRGGIFDAVFTRGDQTTLLTARHDLKNKGLNDISTIIKQELTEGRALALSHTYANVSISHVINLWGADFNAEGNLEAIYVTDSDADEKIGMKKYFVGINAHGHVAISAKKIEGENIGAQVLGLFTLSSGKDIWQKLSLEHHHHHH"
measurement_units = "ng/µL"
observed_result = 0

[[record]]
protein = "PRT-112 (protein) MRNATEAYAKEVPHKITSVWTKGVTPLTPEQFRYNGEDVIHAPYLANQGWYDITKTFDGKDNLLCGAATAGNMLHWWFDQNKTEIEAYLKKHPEKQKIIFNNQELFDLKAAIDTKDSQTNSALFNYFKDKAFPNLSARQLGVMPDHVLDMFINGYYLNVFKTQSTDVNRPYQDKDKRGGIFDAVFTRGDQTKLLTARHDLKNKGLNEISTLIKQELTEGKALALSHTYANVSISHVINLWGADFNAEGNLEAIYVTDSDANASIGMKKYFVGVNASGKVAISAKKIEGENIGAQVLGLFTLSSGKDIWQKLS"
measurement_units = "ng/µL"
observed_result = 15


Task: Field request: Enzyme Activity Endpoint Assay (purified): IgG | item: PRT-146 (protein) MANQEIRYSEVTPYHIKTVWTKGVTPPANFTQGEDVFHAPYVANQGWYDITKTFNGKDDLLCGAATAGNMLHWWFDQNKDQIKRYLEEHPEKQKINFNGEQMFDVKEAIDTKNHQLDSKLFEYFKEKAFPYLSTKHLGVFPDHVIDMFINGYRLSLTNHGPTPVKEGSKDPRGGIFDAVFTRGDQSKLLTSRHDFKEKTLNDISQLIKQELQSGKALGLSHTYANVRINHVINLWGADFDAEGNLEAIYVTDSDSNASIGMKKYFVGKNSAGKVAISAKEIKEDNIGAQVLGLFTLSTGQDSWNQTN
Result: 0
